Tested on: OVCAR-4 ovarian
protocol: NCI-60 one-dose screen, 48 h
studyConditions: 10 µM unless noted
About 83,000 compounds went through this panel and 20% of them were active in at least one assay; those are over-represented in the sample as a whole. Calls of active or inactive are those of the source. The calls were made as follows: active = growth percent below 10; inactive = the rest.
A correct response names exactly one class from true = active, false = inactive

CCOC(=O)c1c(C)c2c(n1C)CSc1cc(C(=O)c3ccccc3)c(=O)[nH]c1-2 ... false
CCN(CC)CCNC(=O)c1cn2ncnc(Oc3ccc(NC(=O)Nc4ccc(Cl)c(C(F)(F)F)c4)c(F)c3)c2c1C ... true
CCN1C(=O)N(CC)C2C1NN=c1s/c(=C\c3cccc([N+](=O)[O-])c3)c(=O)n12 (stereo not given) ... false
COc1ccc(NC(=O)c2sc3nc(C)c(C(=O)/C=C/c4cccc(OC)c4)cc3c2N)cc1 ... false

# input for lookup
Lookup: Which result was noted for this compound in the test: Cn1cc(-c2csc(-c3ccc(Cl)cc3)n2)c2cccnc21
Found: true

---

Would you kindly list growth for each of these compounds?
Tested on: UO-31 renal
protocol: NCI-60 one-dose screen, 48 h (100 = growth as untreated, 0 = no growth, -100 = all killed)
studyConditions: 10 µM unless noted
About 83,000 compounds went through this panel and 20% of them were active in at least one assay; those are over-represented in the sample as a whole.
Give bare numbers, in %.

CC1=Nc2cnc(Nc3ccc(OCCN4CCCC4)cc3)nc2Nc2ccccc21 ... 17.3
CCOC(=O)CNP(=O)(OC[C@@H](Cc1ccccc1)NC(=O)c1cc2ccccc2s1)Oc1ccccc1 (some centres undefined) ... 80.7
C=C1C(=O)O[C@H]2[C@H]1CC/C(COC(=O)CSCCSCC(=O)OC/C1=C/CC[C@@]3(C)O[C@H]3[C@H]3OC(=O)C(=C)[C@@H]3CC1)=C\CC[C@@]1(C)O[C@@H]21 ... 7.85
CCOC(=O)c1cc(C(=O)c2cc(OC)c(OC)c(OC)c2)n2ccc(-c3ccncc3)cc12 ... 70.3
CCN1CCN(Cc2cn(CC(=O)Nc3ccc4c(ccn4Cc4ccccc4)c3)nn2)CC1 ... 81.3

Quick one: give me growth for each item below, same order please.
1. N#CC1=C(c2ccc(Cl)cc2)Nc2c(c(-c3ccc(Cl)cc3)nn2-c2ccccc2)C12C(=O)Nc1ccc(Cl)cc12 (centres undefined)
2. CN(C)CCCC1(c2ccc(F)cc2)OCc2cc(-c3cccc4[nH]ccc34)ccc21 (centres undefined)
3. CN(C)C1CCN(Cc2ccc(NC(=O)c3cncc(C#Cc4cnc(N)c5ncccc45)c3)cc2C(F)(F)F)CC1
4. CC(=O)OCc1nc(C#N)c(N(C)C)o1

Found:
1. 23.5
2. -9.8
3. 89.3
4. 89.9

---

Test system: A549/ATCC NSCLC
protocol: NCI-60 one-dose screen, 48 h (100 = growth as untreated, 0 = no growth, -100 = all killed)
studyConditions: 10 µM unless noted
The panel holds about 83,000 compounds, 20% with a hit somewhere; the sample as a whole holds those more often.
measurementName: growth (%)
Give bare numbers, in %.

Oc1ccc(CN2CCC(N3CCCCC3)CC2)c2cccnc12 ... 17.4
CC1(C)CC[C@]2(C(=O)O)CC[C@]3(C)C(=CC[C@@H]4[C@@]5(C)C/C(=C/O)C(=O)C(C)(C)[C@@H]5CC[C@]43C)[C@@H]2C1 ... 89.4
CCN(CC)c1nc(SCc2ccccc2Cl)ncc1C ... 95

Quick one: give me growth for each item below, same order please.
1. Oc1ccc(CCn2c(O)c(/C=C3\CN=c4ccccc4=N3)sc2=S)cc1
2. CN(C)Cc1ccc(NC(=O)c2cncc(C#Cc3cnc(N)c4ncccc34)c2)cc1F
3. CC(C)N1CN2C(=S)NC3C2N(C1)C(=S)N3C (stereo not drawn)
4. CCn1c(SCC(=O)c2ccc(Br)cc2)nnc1-c1ccncc1
5. O=C1N[C@@H]2NC(=[N+]3CCOCC3)N[C@@H]2N1
6. O=C1c2c(c3c4ccc(Br)cc4oc3c3[nH]c4ccccc4c23)C(=O)N1O

Found:
[82.1, 65.7, 90.8, 106, 101, 64.3]

Quick one: give me growth for each item below, same order please.
1. CC(O)c1cnc(/C=C2\SC(=S)N(Cc3ccccc3)C2=O)s1 (stereo not drawn)
2. COc1ccc(-c2nnc(-c3ccc4c(c3)nc(-c3ccncc3)n4C3CCCCC3)o2)cc1
3. CC(C)c1ccc(COCc2cc(CN3CCCC3)c(O)c3ncccc23)cc1
4. CCn1c(=S)[nH]c2c(=O)n(C)c(=O)n(C)c21
5. CC[C@]12C=CCN3CC[C@@]4(c5cc(NC(=O)CCC(=O)OCc6cn(Cc7ccc(F)cc7)nn6)c(OC)cc5N(C)[C@H]4[C@@](O)(C(=O)OC)[C@@H]1OC(C)=O)[C@@H]32
6. CC(C)c1ccc(NC(=O)Nc2ccc(NC(=O)CCCC(=O)NOCc3ccccc3)cc2)cc1
7. CC(C)CCNC(=O)Cn1cccc(NC(=O)OCc2ccccc2)c1=O
8. CC(C)(C)c1cc(-c2nc3ccc(N4CCN(S(C)(=O)=O)CC4)cc3[nH]2)cc(C(C)(C)C)c1O

Found:
1. 66.7
2. 59.2
3. 7.74
4. 96.3
5. 96.5
6. 85.3
7. 95.6
8. 83.4

Quick one: give me growth for each item below, same order please.
1. CN1CCN(C(=O)c2ccc(NC(=O)Nc3ccc(-c4nc(N5CCOCC5)c5cccn5n4)cc3)cc2)CC1
2. C=C1CC[C@@H]2[C@](C)(COC(C)=O)[C@H](OC(C)=O)CC[C@@]2(C)[C@@H]1CC(Sc1ccccc1)C1=CCOC1=O (stereo partly drawn)
3. Brc1ccc(-n2cc(-c3nn[nH]n3)c(-c3cccs3)n2)cc1

Found:
[1.15, 26.6, 89.1]

Quick one: give me growth for each item below, same order please.
1. COc1cc(-c2nc3cc(Cl)c(Cl)cc3[nH]2)ccc1OCC(=O)N=Nc1c(O)[nH]c2ccc([N+](=O)[O-])cc12
2. O=C(Nc1ccc(-c2nc(N3CCOCC3)c3cccn3n2)cc1)Nc1cccnc1
3. CCCCCCCCCCCCCCCCCCOc1ccccc1CC(=O)OCC[N+]1(C)CCCC1

Found:
114
0.989
23

From: PubChem BioAssay (NCI)
